biological target: MAGI2_3, Q86UL8; assay: holdup assay; design: key: below the threshold = too weak to quantify, mostly under pKd 3.1 to 4; settings: plain residues with an end cap or a label only (N-terminal biotin on a linker: ado-ado)
Sequence (Q86UL8 600-682): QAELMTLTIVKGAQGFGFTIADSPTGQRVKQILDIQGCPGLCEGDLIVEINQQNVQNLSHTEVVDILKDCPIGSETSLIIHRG
Measured metric: pKd

Here is how some binders turned out for pKd.
Binder	pKd
IKLETKKTKL [SLC15A2, Q16348]	3.6
PGKKPEDSRV [SLCO2B1, O94956]	below the threshold
MLPANYVEAI [NEB, P20929]	below the threshold
NKSEPFLTWL [WWTR1, Q9GZV5]	3.48
PLATCDETSI [SEMA4F, O95754]	below the threshold

Please state, for each entry, its recorded pKd.
1. QKNKDREYYV [NRXN3, Q9HDB5]
2. VCMGDHWFDV [PRKN, O60260]
3. PSVYSRSQYV [CLDN8, P56748]
4. FVFESRKEIL [TBPL1, P62380]
5. STYCDYTIEI [FAM71C, Q8NEG0]

Ans:
1: below the threshold; 2: below the threshold; 3: below the threshold; 4: below the threshold; 5: below the threshold

Hello, I would appreciate it if you could give pKd for each entry below.
1. EAVTVESTSL [SLC22A11, Q9NSA0]
2. RDYTQSSSSL [GRM5, P41594]
3. KIEDVEITLV [FCHSD2, O94868]
4. LVEEEEPMNL [HDAC7, Q8WUI4]
5. ATKDKKITTV [EXOC4, Q96A65]
6. TFSRRPKTRV [CD226, Q15762]
7. LPPPESESKV [KCNJ9, Q92806]

Ans:
1. below the threshold
2. below the threshold
3. 4.52
4. below the threshold
5. 3.57
6. below the threshold
7. 3.64

// each binder listed below needs its pKd
1. KKTPVSRSHL [SLC22A3, O75751]
2. GVHSNDHSVV [LPAR1, Q92633]
3. SSSVNVSSNL [CXCR1, P25024]
4. HDDYFYHDEL [RCN2, Q14257]
5. SGDGKTSVWI [GJC1, P36383]
6. NNMAFETTHF [SLC5A12, Q1EHB4]

Ans:
1: below the threshold; 2: below the threshold; 3: 3.5; 4: below the threshold; 5: below the threshold; 6: below the threshold

Report pKd for every entry below.
1. PSDSVGKDVF [EGLN1, Q9GZT9]
2. SQPLLVHDDV [KIT, P10721]
3. PKSNSSKEYV [CLDN7, O95471]
4. NISARRFTLC [FAM167B, Q9BTA0]
5. GDSSRKEYFI [GYPC, P04921]
6. TNSKQGETTV [FZD1, Q9UP38]
7. THHRKIHTRV [ZNF599, Q96NL3]

Ans:
["below the threshold", "below the threshold", "below the threshold", 3.81, "below the threshold", 3.83, 3.82]

Give pKd for all binders that follow.
1. LLQEEWETVM [PTH1R, Q03431]
2. NSTHNLKDYV [CLDN20, P56880]

Ans:
1: 3.59; 2: below the threshold
